target: IDO1 protein levels in BxPC3 cells (Homo sapiens, UniProt P14902); assay: IDO1 immunoblotting (degradation); assay type: cell-based; set-up: endogenous in cells; host or cells: BxPC3 (DSMZ), IFN-γ stimulated; conditions: 100 nM, 24 h incubation; mean ± SD
Sequence (P14902 whole entry): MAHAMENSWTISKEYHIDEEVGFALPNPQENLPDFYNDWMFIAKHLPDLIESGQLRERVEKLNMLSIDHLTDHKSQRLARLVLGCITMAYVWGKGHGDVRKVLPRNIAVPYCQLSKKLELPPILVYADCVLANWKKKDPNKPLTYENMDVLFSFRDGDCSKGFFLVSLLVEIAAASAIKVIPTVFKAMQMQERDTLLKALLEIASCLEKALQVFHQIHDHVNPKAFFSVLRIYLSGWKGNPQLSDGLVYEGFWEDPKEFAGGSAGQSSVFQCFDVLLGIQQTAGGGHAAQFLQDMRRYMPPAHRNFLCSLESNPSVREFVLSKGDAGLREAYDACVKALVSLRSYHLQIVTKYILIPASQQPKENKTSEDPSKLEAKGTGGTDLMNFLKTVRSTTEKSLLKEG
Recorded Max. degradation (%) by entry

Sample answers from the record:
[
  {
    "ITEM_SMILES": "CC(C)(C)c1ccc(S(=O)(=O)N2C[C@H]3C[C@H]4C[C@H](C4(C)C)[C@@]3(COC(=O)Nc3ccc(I)cc3)C2)cc1",
    "Max. degradation (%)": "37 ± 14 (3) %"
  },
  {
    "ITEM_SMILES": "CC(C)(C)c1ccc(S(=O)(=O)N2C[C@H]3C[C@H]4C[C@H](C4(C)C)[C@@]3(COC(=O)Nc3ccc(I)cc3)C2)c(C2CC2)c1",
    "Max. degradation (%)": "55 ± 4 (3) %"
  },
  {
    "ITEM_SMILES": "CCc1cc(C(C)(C)C)ccc1S(=O)(=O)N1C[C@H]2C[C@H]3C[C@H](C3(C)C)[C@@]2(COC(=O)Nc2ccc(I)cc2)C1",
    "Max. degradation (%)": "56 ± 4 (3) %"
  }
]

Summary for this compound, CC(C)(C(=O)O)c1ccc(S(=O)(=O)N2C[C@H]3C[C@H]4C[C@H](C4(C)C)[C@@]3(COC(=O)Nc3ccc(I)cc3)C2)c(Cl)c1 : Max. degradation (%) is 20 ± 12 (3) %

Summary for this compound, Cc1cc(C(C)(C)C(=O)O)ccc1S(=O)(=O)N1C[C@H]2C[C@H]3C[C@H](C3(C)C)[C@@]2(COC(=O)Nc2ccc(I)cc2)C1 : Max. degradation (%) is 18 ± 19 (3) %
